Tested on: CD2F1 mice, L1210 leukemia ip, survival T/C
protocol-notes: NCI In Vivo Anticancer Drug Screen. Data for tumor model L1210 Leukemia (intraperitoneal) in CD2F1 (CDF1) mice
study-conditions: endpoint: mean survival time; dose: 100.0 mg/kg/injection; schedule: Q01DX009 (ip); vehicle: water; higher = longer survival
Inconclusive results and toxic doses are left out. Residues, ends and D or L forms follow the SMILES beside them.
endpoint-label: T/C

compound=[O-][n+]1ccccc1C[P+](c1ccccc1)(c1ccccc1)c1ccccc1 test_system="CD2F1 mice, L1210 leukemia ip, survival T/C" result="96 % of control"
compound="CS(=O)CSCC(N)C(=O)O (centres undefined)" test_system="CD2F1 mice, L1210 leukemia ip, survival T/C" result="102 % of control"
compound="CC(C)C(NC(=O)C(NC(=O)C(CCCN=C(N)N)NC(=O)C(N)CCCCN)C(C)C)C(N)=O (centres undefined) (H-KRVV-NH2; configuration not given here)" test_system="CD2F1 mice, L1210 leukemia ip, survival T/C" result="108 % of control"
compound="COC1=CC23CCCN2CCc2cc4c(cc2C3C1O)OCO4 (centres undefined)" test_system="CD2F1 mice, L1210 leukemia ip, survival T/C" result="95 % of control"
